Target: CD73 (Homo sapiens (Human))
Assay: MDA-MB-231 Cell Based CD73 Activity Assay
Settings: MDA-MB-231-GFP cells, RPMI medium with 10% human plasma, 200 uM AMP
property: EC50 (nM)

Use the examples below as a reference point.
compound	target.of.assay	EC50 / nM
CC1(C)CN(c2cc(-c3c[nH]c(=O)[nH]c3=O)nn3ccnc23)C1 [Example 63]	CD73 (Homo sapiens (Human))	34.7
N#Cc1cc(F)cc([C@H]2C[C@@H]2c2cc(-c3c[nH]c(=O)[nH]c3=O)nn3ccnc23)c1 (racemic) [Example 85]	CD73 (Homo sapiens (Human))	6.08
O=c1[nH]cc(-c2cc(N3CCCC(F)(F)C3)c3nccn3n2)c(=O)[nH]1 [Example 93]	CD73 (Homo sapiens (Human))	556

[1] CCOC(=O)c1cn2nc(-c3c[nH]c(=O)[nH]c3=O)cc(C3CC3)c2n1 [Example 3]
[2] O=c1[nH]cc(-c2cc(N3CCC(c4ccc(F)cc4)C3)c3nccn3n2)c(=O)[nH]1 (stereo in doubt) [Example 67]
Asked: Pick one: 1 or 2 . Which has the bigger EC50 number? // return label of chosen record
Given back: 1

[P] O=c1[nH]cc(-c2cc(N3CCC(c4ccc(F)cc4)C3)c3nccn3n2)c(=O)[nH]1 (stereo in doubt) [Example 68]
[Q] O=c1[nH]cc(-c2cc([C@H]3C[C@@H]3c3ccc(C(F)(F)F)cc3)c3nccn3n2)c(=O)[nH]1 (racemic) [Example 42]
[R] O=c1[nH]cc(-c2cc(C3CC3)c3nc(-c4cccnc4)cn3n2)c(=O)[nH]1 [Example 102]
Asked: Number of compounds to sort: 3. Sort criterion: EC50, ascending. Form field (ranking): labels in requested order.
Given back: Q, P, R
(Q: 7.59 nM, P: 67.5 nM, R: 258 nM)

[1] O=c1[nH]cc(-c2cc([C@H]3C[C@@H]3C3CC(F)(F)C3)c3nccn3n2)c(=O)[nH]1 (mixture of isomers) [Example 106]
[2] O=c1[nH]cc(-c2cc([C@H]3C[C@@H]3c3ccncc3)c3nccn3n2)c(=O)[nH]1 (racemic) [Example 54]
Asked: Which of these two has the smaller recorded EC50: 1 or 2 ? // return label of chosen record
Given back: 2

[I] Cc1nc2c(C3CCC(F)(F)CC3)cc(-c3c[nH]c(=O)[nH]c3=O)nn2n1 [Example 55]
[II] O=c1[nH]cc(-c2cc(OCc3ccccc3)c3nccn3n2)c(=O)[nH]1 [Example 26]
[III] O=c1[nH]cc(-c2cc([C@H]3C[C@@H]3Cc3ccccc3)c3nccn3n2)c(=O)[nH]1 (racemic) [Example 105]
[IV] O=c1[nH]cc(-c2cc([C@H]3C[C@@H]3c3ccc(F)cc3F)c3ncc(F)n3n2)c(=O)[nH]1 [Example 88]
Asked: Number of compounds to sort: 4. Sort criterion: EC50, ascending. Form field (ranking): labels in requested order.
Given back: IV, III, II, I
(IV: 2.93 nM, III: 38.5 nM, II: 184 nM, I: 872 nM)

---

Target: CD73 (Homo sapiens (Human), UniProt P21589)
Sequence (P21589 27-574): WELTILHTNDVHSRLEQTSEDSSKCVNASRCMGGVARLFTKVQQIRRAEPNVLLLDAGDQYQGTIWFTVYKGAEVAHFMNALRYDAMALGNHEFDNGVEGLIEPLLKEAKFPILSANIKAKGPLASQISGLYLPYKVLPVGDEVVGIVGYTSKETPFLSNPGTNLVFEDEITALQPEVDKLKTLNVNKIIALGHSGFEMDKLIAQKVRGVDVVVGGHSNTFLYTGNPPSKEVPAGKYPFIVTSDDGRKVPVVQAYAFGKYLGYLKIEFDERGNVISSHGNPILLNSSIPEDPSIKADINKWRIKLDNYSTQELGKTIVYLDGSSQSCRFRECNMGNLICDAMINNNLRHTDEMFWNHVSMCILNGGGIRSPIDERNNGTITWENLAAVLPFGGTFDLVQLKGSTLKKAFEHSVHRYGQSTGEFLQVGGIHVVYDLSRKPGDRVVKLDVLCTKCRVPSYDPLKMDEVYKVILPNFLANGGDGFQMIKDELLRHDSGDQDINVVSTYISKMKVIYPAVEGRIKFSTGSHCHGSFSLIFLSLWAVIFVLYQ
Experiment: MDA-MB-231 Cell Based CD73 Activity Assay
Details: MDA-MB-231-GFP cells, RPMI medium with 10% human plasma, 200 uM AMP
property: EC50 (nM)

Use the examples below as a reference point.
molecule	experimental.value
O=c1[nH]cc(-c2cc([C@H]3C[C@]3(F)c3ccccc3)c3nccn3n2)c(=O)[nH]1 (mixture of isomers)	23.8
CC1(C)CCN(c2cc(-c3c[nH]c(=O)[nH]c3=O)nn3ccnc23)CC1	248
O=c1[nH]cc(-c2cc(N3CCC3c3ccccc3)c3nccn3n2)c(=O)[nH]1 (stereo not shown)	4470

[a] Cc1cn2nc(-c3c[nH]c(=O)[nH]c3=O)cc(C3CC3)c2n1
[b] O=c1[nH]cc(-c2cc(N3CCC(F)(F)C3)c3nccn3n2)c(=O)[nH]1
[c] O=c1[nH]cc(-c2cc(N3CC(c4ccccc4)C3)c3nccn3n2)c(=O)[nH]1
[d] O=c1[nH]cc(-c2cc(C3CC3)c3ncc(F)n3n2)c(=O)[nH]1
[e] O=c1[nH]cc(-c2cc([C@H]3C[C@@H]3c3ccc(F)c(F)c3)c3ncc(F)n3n2)c(=O)[nH]1
Asked: Place the items in sequence of falling EC50. Form field (ranking): labels in requested order.
Given back: a, c, d, b, e

[P] O=c1[nH]cc(-c2cc([C@H]3C[C@@H]3c3cccc4ccccc34)c3nccn3n2)c(=O)[nH]1 (racemic)
[Q] O=c1[nH]cc(-c2cc(N3CC(F)(F)C(F)(F)C3)c3nccn3n2)c(=O)[nH]1
[R] O=c1[nH]cc(-c2cc([C@H]3C[C@@H]3C(F)(F)F)c3nccn3n2)c(=O)[nH]1 (mixture of isomers)
[S] O=c1[nH]cc(-c2cc([C@H]3C[C@@H]3c3cccc(C(F)(F)F)c3)c3nccn3n2)c(=O)[nH]1 (racemic)
[T] O=c1[nH]cc(-c2cc(C3CC3)c3nc(-c4ccncc4)cn3n2)c(=O)[nH]1
Asked: Number of molecules to sort: 5. Sort criterion: EC50, ascending. Form field (ranking): labels in requested order.
Given back: Q, S, R, P, T
(Q: 13 nM, S: 18.6 nM, R: 55 nM, P: 540 nM, T: 2050 nM)

[A] O=c1[nH]cc(-c2cc(N3C[C@H](F)[C@@H](F)C3)c3nccn3n2)c(=O)[nH]1 (racemic)
[B] O=c1[nH]cc(-c2cc([C@H]3C[C@@H]3c3ccc(F)c(C(F)(F)F)c3)c3nccn3n2)c(=O)[nH]1 (racemic)
Asked: Pick one: A or B . Which has the bigger EC50 number? // return label of chosen record
Given back: B

[I] O=c1[nH]cc(-c2cc(N3CCC(F)(F)CC3)c3nccn3n2)c(=O)[nH]1
[II] O=c1[nH]cc(-c2cc(N3CCCC3)c3nccn3n2)c(=O)[nH]1
Asked: Which of these two has the smaller recorded EC50: I or II ? // return label of chosen record
Given back: II
(II: 29.1 nM, I: 240 nM)

[a] O=c1[nH]cc(-c2cc([C@H]3C[C@@H]3c3cc(F)cc(F)c3)c3nccn3n2)c(=O)[nH]1 (racemic)
[b] O=c1[nH]cc(-c2cc(C3CCC(F)(F)CC3)c3nccn3n2)c(=O)[nH]1
[c] O=c1[nH]cc(-c2cc(-n3cccn3)c3nccn3n2)c(=O)[nH]1
Asked: Place the items in sequence of falling EC50. Form field (ranking): labels in requested order.
Given back: c, b, a

[P] O=c1[nH]cc(-c2cc([C@H]3C[C@@H]3c3cccnc3)c3nccn3n2)c(=O)[nH]1 (racemic)
[Q] O=c1[nH]cc(-c2cc([C@H]3C[C@@H]3c3ccc4c(c3)OC(F)(F)O4)c3nccn3n2)c(=O)[nH]1 (racemic)
Asked: Pick one: P or Q . Which has the bigger EC50 number? // return label of chosen record
Given back: Q

[1] O=c1[nH]cc(-c2cc([C@H]3C[C@@H]3c3ccc(C4CC4)cc3)c3nccn3n2)c(=O)[nH]1 (racemic)
[2] O=c1[nH]cc(-c2cc(-c3ccc(NCC4CC4)cc3)c3nccn3n2)c(=O)[nH]1
Asked: Which of these two has the smaller recorded EC50: 1 or 2 ? // return label of chosen record
Given back: 1

[I] O=c1[nH]cc(-c2cc([C@H]3C[C@@H]3c3ccc(Cl)c(F)c3)c3nccn3n2)c(=O)[nH]1 (racemic)
[II] O=c1[nH]cc(-c2cc(C3CC3)c3nc(C4CC4)cn3n2)c(=O)[nH]1
[III] O=c1[nH]cc(-c2cc(C3CC3)c3nc(-c4ccccc4C(F)(F)F)cn3n2)c(=O)[nH]1
Asked: Number of molecules to sort: 3. Sort criterion: EC50, ascending. Form field (ranking): labels in requested order.
Given back: I, III, II

[I] O=c1[nH]cc(-c2cc(C3(C(F)(F)F)CC3)c3nccn3n2)c(=O)[nH]1
[II] N#Cc1ccc([C@H]2C[C@@H]2c2cc(-c3c[nH]c(=O)[nH]c3=O)nn3ccnc23)cc1F (racemic)
Asked: Which of these two has the smaller recorded EC50: I or II ? // return label of chosen record
Given back: II
